# Test system: kochia
# ASSAY_REMARKS: Test A pre-/postemergence herbicide test
# Assay type: in vivo, Kochia scoparia
# STUDY_CONDITIONS: 125 g ai/ha; visual rating, 0 to 100 scale, 0 no effect, 100 complete control; approximately 10 days; preemergence
Listing of entries alongside the reported Plant response rating, Kochia.

Sample records with Plant response rating, Kochia:
> print(dat)
                                   molecule  measured.value
1  O=C1NCC(c2ccc(OC(F)(F)C(F)F)cc2)C1C(=O)Nc1cccc(F)c1F (racemic)              30
2  O=C1NCC(c2cccc(OC(F)(F)C(F)F)c2)C1C(=O)Nc1ccc(F)cc1F (racemic)              60
3  O=C1NCC(c2cccc(C(F)(F)F)c2)C1C(=O)Nc1ncc(Cl)s1 (racemic)               0

Next:
Prompt: What Plant response rating, Kochia value was documented for this molecule, O=C1NCC(c2ccc(-c3ccccc3F)cc2)C1C(=O)Nc1cccc(F)c1F (stereo not shown) ?
Completion: 0
